melting point values for the compounds below.

[[record]]
compound = "CCC1=C(Cc2c[nH]cn2)CCc2ccc(OC)cc21"
attribute_measured = "melting point"
reported_result = "111.5 to 113.5 °C"


Query melting point for CC(C)COc1ccc2c(c1)CCC(Cc1c[nH]cn1)C2=O (stereo not drawn)
114.5 to 115 °C

Given the compound COc1cccc2c1CCC(Cc1c[nH]cn1)=C2C , write its reported melting point.
132.5 to 135 °C

Could you please provide reported melting point for CCCOc1ccc2c(c1)CCC(=Cc1c[nH]cn1)C2=O ? Thanks!
156.5 to 158 °C

Give reported melting point value for COc1ccc2c(c1)C(c1ccccc1)=C(Cc1c[nH]cn1)CC2
198.5 to 199.5 °C

Give reported melting point value for CCOc1cccc2c1CCC(Cc1c[nH]cn1)C2=O (stereo not drawn)
132 to 134 °C

====

attribute_measured: melting point

See these solved cases before continuing.
[[record]]
compound = "COc1ccc2c(c1)C=C(Cc1c[nH]cn1)CC2"
reported_result = "155.5 to 156.5 °C"

[[record]]
compound = "CCCC1=C(Cc2c[nH]cn2)CCc2c(OC)cccc21"
reported_result = "174.5 to 175.5 °C"

[[record]]
compound = "COc1cccc2c1CCC(Cc1c[nH]cn1)C2=O (centres unmarked)"
reported_result = "145.5 to 148 °C"

[[record]]
compound = "CCOc1cccc2c1CCC(=Cc1c[nH]cn1)C2=O"
reported_result = "122 to 124 °C"

[[record]]
compound = "CCCOc1ccc2c(c1)CCC(Cc1c[nH]cn1)C2=O (centres unmarked)"
reported_result = "134.5 to 136 °C"


State its melting point for this compound: CC(C)COc1ccc2c(c1)CCC(=Cc1c[nH]cn1)C2=O
79 to 81.5 °C

Look up and report measured melting point for this entry: CCOc1ccc2c(c1)C(=O)C(Cc1c[nH]cn1)CC2 (centres unmarked)
176.5 to 178.5 °C

State, in one line, measured melting point of COc1ccc2c(c1)CCC(Cc1c[nH]cn1)=C2c1ccccc1
201.5 to 202.5 °C

====

Property: inhibition at 25 µM; scope: individual compounds
target: Aromatase (Homo sapiens, UniProt P11511); construct: Aromatase was prepared from the microsome fraction of human placenta tissue; from tissue; host or cells: human placenta (microsome fraction); assay: Aromatase inhibiting activity test, human placenta microsomes; type: biochemical; conditions: inhibitor 25 μM, testosterone 2.5 μM, NADPH 250 μM
Sequence (P11511 whole entry): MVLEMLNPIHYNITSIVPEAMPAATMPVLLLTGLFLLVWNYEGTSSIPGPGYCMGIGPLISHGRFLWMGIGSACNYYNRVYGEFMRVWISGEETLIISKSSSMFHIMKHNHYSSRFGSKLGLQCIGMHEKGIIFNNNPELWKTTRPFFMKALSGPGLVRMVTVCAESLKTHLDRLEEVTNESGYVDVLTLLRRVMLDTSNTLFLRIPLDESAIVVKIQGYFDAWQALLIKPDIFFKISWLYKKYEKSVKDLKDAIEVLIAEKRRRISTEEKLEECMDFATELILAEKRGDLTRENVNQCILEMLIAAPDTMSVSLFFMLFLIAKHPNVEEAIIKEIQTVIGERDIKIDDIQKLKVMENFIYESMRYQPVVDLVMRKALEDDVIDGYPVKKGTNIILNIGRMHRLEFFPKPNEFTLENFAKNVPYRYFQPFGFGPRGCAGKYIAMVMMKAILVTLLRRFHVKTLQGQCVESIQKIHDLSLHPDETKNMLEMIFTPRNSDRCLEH
Give your result in % as a bare value.

Take a look at these entries with their results.
[[record]]
structure = "COc1cccc2c1CCC(Cc1cccnc1)=C2C"
assay_target = "Aromatase (Homo sapiens, UniProt P11511)"
readout_units = "%"
reported_result = 50

[[record]]
structure = "CC1=C(Cc2cccnc2)CCc2c(O)cccc21"
assay_target = "Aromatase (Homo sapiens, UniProt P11511)"
readout_units = "%"
reported_result = 60

[[record]]
structure = "COc1ccc2c(c1)C(C)=C(Cc1cccnc1)CC2"
assay_target = "Aromatase (Homo sapiens, UniProt P11511)"
readout_units = "%"
reported_result = 61


Provide inhibition at 25 µM, tested on Aromatase (Homo sapiens, UniProt P11511), for COc1ccc2c(c1)CCC(Cc1cccnc1)=C2C .
52

Would you please give the reported inhibition at 25 µM of CC1=C(Cc2cccnc2)CCc2ccccc21 with Aromatase (Homo sapiens, UniProt P11511)?
56

Fetch value of inhibition at 25 µM on Aromatase (Homo sapiens, UniProt P11511) for CC1=C(Cc2cccnc2)CCc2cc(O)ccc21 .
37
